Tested on: HCT-15 colon
assay-notes: NCI tumour cell line growth inhibition, 48 h
measurement-kind: TGI

Look over these answered cases.
compound=Nc1ccn(Cc2ccc(C34CC5CC(CC(C5)C3)C4)c(O)c2)c(=O)n1 reported_result="> 100 µM"
compound=OC[C@@H](O)[C@H]1NC[C@@H](O)[C@H]1O reported_result="> 100 µM"
compound="CC(=O)OC[C@]1(C(=O)C(O)c2ccoc2)[C@H](C)CC[C@@]23COC(=O)C2=CCC[C@@H]31 (some centres not stated)" reported_result="> 10 µM"
compound=C[C@H](Nc1ncnc2nc[nH]c12)c1cc2cccc(Cl)c2c(=O)n1-c1ccccc1 reported_result="> 100 µM"
compound="CCOP(=O)(OCC)C1C(CO)OC(n2ccc(=O)[nH]c2=O)C1O (configuration not stated)" reported_result="> 100 µM"
compound=COC(=O)c1csnn1 reported_result="> 100 µM"
compound="C=C1C(=O)OC2/C=C(\\CO)C(OC(C)=O)CC(O)/C(C)=C/C(OC(=O)C(C)CC)C12 (configuration not stated)" reported_result="> 100 µM"
compound=CC(C)(C)C#CC1=C(Br)C(=O)OC1 reported_result="> 22.3 µM"

Consider the following items and state reported TGI for each.
1. CC1(C)SC2C(NC(=O)C(N)c3ccccc3)C(=O)N2C1C(=O)O (configuration not stated)
2. O=C(CP(=O)(O)O)c1cccs1
3. CC1(C)C(c2ccccc2)=[N+]([O-])C(C)(C)N1O
4. O=C(Nc1cccc2cnccc12)c1cc2c(cc1Cl)Sc1nccn1S2(=O)=O
5. COC(=O)c1ccccc1/C=C1/Cc2ccccc2C1=O
6. O=C1c2ccccc2CN1c1ccc(O)cc1

Output:
["> 100 µM", "> 100 µM", "> 10 µM", "27.8 µM", "58.6 µM", "> 100 µM"]

Value sought for every listed compound: TGI.
1. Cc1ccc(/C=C2\CN(C(=O)OC(C)(C)C)C/C(=C\c3ccc(C)cc3)C2=O)cc1
2. COC(=O)[C@@H](C)C[C@H](Cc1ccccc1)NC(=O)c1nc([C@@H](C[C@H](C(C)C)N(C)C(=O)[C@@H](NC(=O)[C@H]2CCCCN2C)C(C)C)OC(C)=O)sc1C
3. COc1ccc(CC(CO)NC(=O)OCc2ccccc2)cc1Oc1ccc(CC(CO)NC(=O)OCc2ccccc2)cc1 (configuration not stated)

Output:
> 100 µM
> 16.7 µM
> 100 µM

Provide TGI values for the following items, in order.
1. C[n+]1c(-c2ccccc2)cc2/c(=C\c3ccc([N+](=O)[O-])cc3)c3ccccc3n21
2. CCOC(=O)C1=C(C)N(Cc2ccccc2)C(C)=C(C(=O)OCC)C1c1ccccc1O
3. CC1(C)O[C@@H]2COC(=O)[C@@H]2O1
4. COCOc1ccc(OC)cc1
5. O=CNc1c(Cl)cc2c(c1Cl)Cc1cc([N+](=O)[O-])ccc1-2
6. O=c1c2c([nH]c3cc4c(cc13)OCO4)-c1ccccc1CC2

Output:
1: > 100 µM; 2: > 100 µM; 3: > 100 µM; 4: > 100 µM; 5: > 100 µM; 6: > 100 µM
